- Test system: rabbits
- method_notes: In vivo neuromuscular block and cardiovascular side effects, rabbit (Example 8, Table 7)
- run_parameters: at 80-85% neuromuscular blocking dose
experimental_endpoint: ΔH (change in heart rate) (%)
Provide only the numeric value, understood in %.

(Q) API: value(readout=ΔH (change in heart rate), system=rabbits) for record COc1cc(C[N+]2(C)[C@@H]3CC[C@H]2C[C@@H](OC(=O)CCCCCCCCCC(=O)O[C@H]2C[C@H]4CC[C@@H](C2)[N+]4(C)Cc2cc(OC)c(OC(C)=O)c(OC)c2)C3)cc(OC)c1OC(C)=O.[Br-].[Br-] (stereo partly drawn)
(A) 0

(Q) API: value(readout=ΔH (change in heart rate), system=rabbits) for record COc1cc(C[N+]2(C)[C@@H]3CC[C@H]2C[C@@H](OC(=O)C2CCC2C(=O)O[C@H]2C[C@H]4CC[C@@H](C2)[N+]4(C)Cc2ccc(OC(C)=O)c(OC)c2)C3)ccc1OC(C)=O.[Br-].[Br-] (stereo partly drawn)
(A) 0

(Q) API: value(readout=ΔH (change in heart rate), system=rabbits) for record CC(=O)Oc1ccc(C[N+]2(C)[C@@H]3CC[C@H]2C[C@@H](OC(=O)CCCC(=O)O[C@H]2C[C@H]4CC[C@@H](C2)[N+]4(C)Cc2ccc(OC(C)=O)c(OC(C)=O)c2)C3)cc1OC(C)=O.[Br-].[Br-] (stereo partly drawn)
(A) 0
